# Tested on: COLO 205 colon
# Run description: NCI tumour cell line growth inhibition, 48 h
Reported TGI is given for each of the following compounds.
Form entry: value (µM) — number only.

Here is how some compounds turned out for TGI.
Compound: COc1ccc([C@@]23Oc4cc(OC)cc(OC)c4[C@]2(O)[C@H](O)[C@H](C(=O)N(C)C)[C@H]3c2ccccc2)cc1
Recorded result: 0.0197
--
Compound: COCc1cc2c(s1)C(=O)C1=C(C2=O)C2(C=C(Br)C(=O)C(Br)=C2)CCN1
Recorded result: 12.4
--
Compound: CC(=O)c1c(-c2ccc(Cl)cc2)c(C#N)c(=S)n(C2OC(CO)C(O)C(O)C2O)c1C (stereo not given)
Recorded result: 95.1
--
Compound: CC[C@]1(c2ccc3c(c2)OCO3)C=[N+]([O-])O[C@H](OC2CCCC2(c2ccccc2)c2ccccc2)[C@@H]1OC(C)=O (stereo not given in full)
Recorded result: 5.07
--
Compound: CN(C)C1C(=O)C(C(N)=O)=C(O)C2(O)C(=O)C3=C(O)c4c(O)cccc4C(C)(O)C3CC12.[Cl][Sb]([Cl])[Cl] (stereo not given)
Recorded result: 9.17
--
Compound: COc1cc2c(cc1OC)C1=C(C=O)c3ccc(OC)c(OC)c3C(O)N1CC2 (stereo not given)
Recorded result: 64.1
--
Compound: BrC1(c2ccccc2)C[n+]2c(-c3ccccc3)cc(-c3ccccc3)cc2-c2ccccc21 (stereo not given)
Recorded result: 0.318
--
Compound: COc1ccccc1/C=C(\NC(=O)c1ccccc1)c1nc2ccc(Cl)cc2[nH]1
Recorded result: 38.8
--
Compound: NC(=O)c1nc(-c2c(F)cccc2Cl)oc1Nc1ccc(C(=O)N2CCOCC2)cc1
Recorded result: 5.89
--
Compound: C=C1C(=O)O[C@@H]2C[C@@]3(C)[C@H](O)CCC(=C)[C@@H]3C[C@H]12
Recorded result: 7.09

Kindly consider the entry below.
Q: Supply TGI value. Item: Cn1c2c(c3c(=O)[nH]ncc31)Cc1ccccc1-2
Ans: 54.3
